Each recorded value in this set is attributed to patent US8618289B2.

tested target: UniProt P04049
Sequence (P04049 whole entry): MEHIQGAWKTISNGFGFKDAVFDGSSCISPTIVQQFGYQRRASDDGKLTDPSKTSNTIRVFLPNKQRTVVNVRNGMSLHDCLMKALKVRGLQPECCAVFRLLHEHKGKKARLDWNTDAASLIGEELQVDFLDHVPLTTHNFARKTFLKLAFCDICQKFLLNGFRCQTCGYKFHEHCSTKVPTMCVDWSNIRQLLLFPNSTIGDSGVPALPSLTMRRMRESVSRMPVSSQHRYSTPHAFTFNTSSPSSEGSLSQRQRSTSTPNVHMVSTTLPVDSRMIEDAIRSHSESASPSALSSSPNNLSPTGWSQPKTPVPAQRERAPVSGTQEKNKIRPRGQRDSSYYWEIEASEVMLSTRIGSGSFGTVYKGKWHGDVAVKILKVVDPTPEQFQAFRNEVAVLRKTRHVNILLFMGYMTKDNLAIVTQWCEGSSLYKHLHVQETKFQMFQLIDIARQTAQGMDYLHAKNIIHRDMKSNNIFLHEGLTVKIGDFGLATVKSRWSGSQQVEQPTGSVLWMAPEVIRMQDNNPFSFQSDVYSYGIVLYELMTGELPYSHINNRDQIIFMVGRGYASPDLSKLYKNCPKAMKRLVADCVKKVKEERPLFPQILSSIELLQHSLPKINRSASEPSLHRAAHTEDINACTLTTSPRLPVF
test context: read-out: RAF1 Kd; RAF1
measured endpoint: Kd

For `COCCOc1cc2ncnc(Oc3cccc(NC(=O)Nc4cc(C5CC5)no4)c3)c2cc1OC` , write its Kd.
< 250 nM

For `COCCOc1cc2ncnc(Sc3cccc(NC(=O)Nc4cc(C(C)(C)C)nn4-c4ccccc4)c3)c2cc1OC` , write its Kd.
> 1000 nM

For `COc1cc2ncnc(Oc3cccc(NC(=O)Nc4cc(C(C)(C)F)no4)c3)c2cc1O` , write its Kd.
< 250 nM

For `COc1cc2ncnc(Sc3cccc(NC(=O)Nc4cc(C(C)(C)C)nn4-c4cccc(C(F)(F)F)c4)c3)c2cc1OC` , write its Kd.
> 1000 nM

----------
Tested on: 290 distinct kinases tested excluding mutant variants (321 in the larger panel)
test context: no asterisk: panel of 290 distinct kinases
measured endpoint: S35

- molecule: "COc1cc2ncnc(Oc3cccc(NC(=O)Nc4cc(C(C)(C)C)nn4-c4ccccc4Cl)c3)c2cc1OC [Ex 340]"
  S35: "D (D > 0.40)"
- molecule: "COc1cc2ncnc(Oc3cccc(NC(=O)Nc4cc(C(C)(C)C)nn4-c4ccccc4C)c3)c2cc1OC [Ex 342]"
  S35: "D (D > 0.40)"
- molecule: "COc1cc2ncnc(Oc3cccc(NC(=O)Nc4cc(C(C)(C)C)nn4-c4ccccn4)c3)c2cc1OC [Ex 344]"
  S35: "C (0.20 < C ≦ 0.40)"
- molecule: "COc1cc2ncnc(Sc3cccc(NC(=O)Nc4cc(C(C)(C)C)nn4C(C)C)c3)c2cc1OC [Ex 335]"
  S35: "C (0.20 < C ≦ 0.40)"

For COc1cc2ncnc(Oc3cccc(NC(=O)Nc4cc(C(C)(F)F)nn4-c4cccnc4)c3)c2cc1OC [Ex 311] , write its S35.
C (0.20 < C ≦ 0.40)

For COc1cc2ncnc(Oc3cccc(NC(=O)Nc4cc(C(C)(C)C)nn4-c4ccc(=O)[nH]c4)c3)c2cc1OC [Ex 317] , write its S35.
D (D > 0.40)

----------
tested target: RAF kinases (Homo sapiens)
test method notes: biochemical
Counter-ions that a name gives are not always drawn.
Consider the following molecules; for each one, report its Kd.

For COCCOc1cc2ncnc(Oc3cccc(NC(=O)Nc4cc(C(C)(C)C)nn4C)c3)c2cc1OC [Ex 209] , write its Kd.
> 1000 nM

For COc1cc2ncnc(Oc3cccc(NC(=O)Nc4cc(C(C)(C)C)on4)c3)c2cc1OCCN1CCN(C)CC1 [Ex 18] , write its Kd.
250 to 500 nM

For COCCOc1cc2ncnc(Sc3cccc(NC(=O)Nc4cc(C(F)(F)F)nn4-c4ccc(F)cc4)c3)c2cc1OC [Ex 242] , write its Kd.
> 1000 nM

For COCCOc1cc2c(Oc3cccc(NC(=O)Nc4cc(C(C)(C)C)on4)c3)ncnc2cc1OC [Ex 15, hydrochloride] , write its Kd.
250 to 500 nM

For CCn1nc(C(C)(C)C)cc1NC(=O)Nc1cccc(Sc2ncnc3cc(OC)c(OC)cc23)c1 [Ex 321] , write its Kd.
250 to 500 nM

For COc1cc2ncnc(Oc3cccc(NC(=O)Nc4ccc(C(F)(F)F)cc4)c3)c2cc1OC [Ex 183] , write its Kd.
250 to 500 nM

For COc1cc2c(Oc3cccc(NC(=O)Nc4cc(C(F)(F)F)nn4-c4ccccc4)c3)ncnc2cc1OCCN1CCOCC1 [Ex 396] , write its Kd.
500 to 1000 nM

For COc1cc2ncnc(Oc3cccc(NC(=O)Nc4cc(C(C)(C)C)on4)c3)c2cc1OCCCN1CCN(C)CC1 [Ex 21] , write its Kd.
250 to 500 nM

For COc1cc2c(Sc3cccc(NC(=O)Nc4cc(C(C)(C)C)on4)c3)ncnc2cc1OCCN1CCCCC1 [Ex 80] , write its Kd.
250 to 500 nM

For COc1cc2c(Oc3cccc(NC(=O)Nc4cc(C(C)(C)C)on4)c3)ncnc2cc1OCCN1CCN(C)CC1 [Ex 36] , write its Kd.
250 to 500 nM

For COc1cc2ncnc(Oc3cccc(NC(=O)Nc4cc(C(C)(C)C)on4)c3)c2cc1OCCN1CCC(CO)CC1 [Ex 17] , write its Kd.
500 to 1000 nM

For COc1cc2c(Oc3cccc(NC(=O)Nc4cc(C(C)(C)C)on4)c3)ncnc2cc1OCCCN1CCC(O)C1 (stereo not shown) [Ex 31] , write its Kd.
250 to 500 nM

For CCOc1cc2ncnc(Oc3cccc(NC(=O)Nc4cc(C(C)(C)C)nn4-c4ccccc4)c3)c2cc1OC [Ex 387] , write its Kd.
500 to 1000 nM

For COc1cc2c(Oc3cccc(NC(=O)Nc4cc(C(C)(C)C)on4)c3)ncnc2cc1OCCCN1CCN(C)CC1 [Ex 28] , write its Kd.
250 to 500 nM

For COc1cc2ncnc(Sc3cccc(NC(=O)Nc4cc(C(C)(C)C)nn4C)c3)c2cc1OC [Ex 157] , write its Kd.
500 to 1000 nM

For COc1cc2ncnc(Sc3cccc(NC(=O)Nc4cc(C(C)(C)C)on4)c3)c2cc1OCCN1CCC(CO)CC1 [Ex 66] , write its Kd.
500 to 1000 nM

For COc1cc2ncnc(Sc3cccc(NC(=O)Nc4cc(C(C)(C)C)on4)c3)c2cc1OCCN1CCN(C)CC1 [Ex 67] , write its Kd.
250 to 500 nM

For COc1cc2ncnc(Oc3cccc(NC(=O)Nc4cc(C(C)(F)F)nn4-c4cncc(F)c4)c3)c2cc1OC [Ex 316] , write its Kd.
250 to 500 nM

For COc1cc2ncnc(Oc3cccc(NC(=O)Nc4cc(C(F)(F)F)nn4-c4ccccc4)c3C)c2cc1OC [Ex 291] , write its Kd.
500 to 1000 nM

For COc1cc2ncnc(Oc3cccc(NC(=O)Nc4cc(C(C)(C)C)on4)c3)c2cc1OCCN1CCOCC1 [Ex 20] , write its Kd.
250 to 500 nM

For COc1cc2ncnc(Sc3cccc(NC(=O)Nc4cc(C(C)(C)C)on4)c3)c2cc1OCCCN1CCCCC1 [Ex 57] , write its Kd.
500 to 1000 nM

For COc1cc2ncnc(Oc3cccc(NC(=O)Nc4cc(C(C)C)nn4-c4ccccc4)c3)c2cc1OC [Ex 324] , write its Kd.
250 to 500 nM

For COCCOc1cc2ncnc(Oc3cccc(NC(=O)Nc4cc(C(C)(C)C)on4)c3)c2cc1OC [Ex 7, hydrochloride] , write its Kd.
250 to 500 nM

For CCOc1cc2c(Sc3cccc(NC(=O)Nc4cc(C(C)(C)C)on4)c3)ncnc2cc1OC [Ex 56] , write its Kd.
500 to 1000 nM

For COc1cc2ncnc(Sc3cccc(NC(=O)Nc4cc(C(C)(C)C)on4)c3)c2cc1OCCCN1CCN(CCO)CC1 [Ex 61] , write its Kd.
250 to 500 nM

For COc1cc2ncnc(Oc3cccc(NC(=O)Nc4cc(C(C)(C)C)nn4CC(C)C)c3)c2cc1OC [Ex 332] , write its Kd.
250 to 500 nM

For COc1cc2c(Sc3cccc(NC(=O)Nc4cc(C(C)(C)C)on4)c3)ncnc2cc1OCCN1CCN(C)CC1 [Ex 83] , write its Kd.
250 to 500 nM

For COc1cc2c(Oc3cccc(NC(=O)Nc4cc(C(C)(C)C)on4)c3)ncnc2cc1OCCCN1CC[C@@H](O)C1 [Ex 34] , write its Kd.
250 to 500 nM

For COc1cc2ncnc(Oc3cccc(NC(=O)Nc4cc(C5CCC5)nn4-c4ccccc4)c3)c2cc1OC [Ex 355] , write its Kd.
500 to 1000 nM

For COc1cc2ncnc(Sc3cccc(NC(=O)Nc4cc(C(C)(C)C#N)nn4-c4ccccc4)c3)c2cc1OC [Ex 309] , write its Kd.
500 to 1000 nM

For COc1cc2ncnc(Oc3cccc(NC(=O)Nc4cc(C(C)(C)C)on4)c3)c2cc1O [Ex 107] , write its Kd.
250 to 500 nM
